Test: Viability / viable cell recovery of cultured murine cells (trypan blue dye exclusion)
Format: cell-based
Details: mouse, trypan blue exclusion
TEST_READOUT: viability at 0.1 µM (%)
One number for each entry, in %.

IN: Tell us which viability at 0.1 µM value is on record for C=C1/C(=C\C=C2/CCC[C@]3(C)[C@@H]([C@H](C)/C=C/[C@H](C)C(C)(C)O)CC[C@@H]23)C[C@@H](O)C[C@@H]1O [1α,25-(OH)2 --D2, 1α,25-Dihydroxyergocalciferol]
OUT: 57

###

Test system: IgM production by human lymphocytes
Test: Inhibition of IgM production by human lymphocytes in vitro (SAC activation, ELISA)
Format: cell-based
Settings: 1 × 10^-8 molar; 8 days; vehicle control 2.49 ± 0.17
TEST_READOUT: IgM μg per culture (x ± S.E.M.) (μg per culture)
Give bare numbers, in μg per culture.

C=C1/C(=C\C=C2/CCC[C@]3(C)[C@@H]([C@H](C)CC[C@@H](F)C(C)(C)O)CC[C@@H]23)C[C@@H](O)C[C@@H]1O [24R-F--1α,25-(OH)2 --D3] ... 1.23

Required: IgM μg per culture (x ± S.E.M.), one value per compound below.
1. C=C1/C(=C/C=C2\CCC[C@]3(C)[C@@H]([C@H](C)CCCC(C)(C)O)CC[C@@H]23)C[C@@H](O)C[C@@H]1O [5,6-trans-1α,25-(OH)2 --D3]
2. C=C1/C(=C\C=C2/CCC[C@]3(C)[C@@H]([C@H](C)/C=C/[C@H](C)[C@](C)(O)CO)CC[C@@H]23)C[C@@H](O)C[C@@H]1O [1α,25S,26-(OH)3 --D2, 1α,25S,26-Trihydroxyergocalciferol]
3. C=C1/C(=C\C=C2/CCC[C@]3(C)[C@@H]([C@H](C)C=CC[C@](C)(O)CO)CC[C@@H]23)C[C@@H](O)C[C@@H]1O [1α,25S,26-(OH)3 --Δ^22 -D3]
4. C=C1/C(=C\C=C2/CCC[C@]3(C)[C@@H]([C@H](C)CCCC(C)(C)O)CC[C@@H]23)C[C@@H](O)C[C@@H]1F [1α-F--25-OH--D3, 1α-Fluoro-25-hydroxycholecalciferol]
5. C=C1/C(=C\C=C2/CCC[C@]3(C)[C@@H]([C@H](C)C[C@H](O)CC(C)(C)O)CC[C@@H]23)C[C@@H](O)C[C@@H]1O [1α,23S,25-(OH)3 --D3, 1α,23S,25-Trihydroxycholecalciferol]

OUT:
[0.50, 0.14, 0.09, 1.83, 0.46]
